Target: HLA-B*15:17
Assay: IEDB peptide-MHC binding, purified MHC/competitive/fluorescence; filed as Kd, often an IC50 or EC50 that approximates it; bounds were set here for any values at or beyond the usual limits of such assays
Settings: source organism: Orthohantavirus negraense

{"sequence-chain": "NIYETEFFM", "Kd": "≥ 20 µM"}

---

Biological target: HLA-B*44:03
Experiment: IEDB peptide-MHC binding, purified MHC/competitive/radioactivity; filed as Kd, often an IC50 or EC50 that approximates it; bounds were set here for any values at or beyond the usual limits of such assays
Settings: source organism: Homo sapiens
pKd: −log10 of the molar value.
property-name: pKd

{"sequence-chain": "KELEGILLP", "property-name": "pKd", "value-reported": 6.45}
